Catalogue of substances with associated IC50
Experimental target: human PAC1 (Homo sapiens)
Sequence (P41586 21-468): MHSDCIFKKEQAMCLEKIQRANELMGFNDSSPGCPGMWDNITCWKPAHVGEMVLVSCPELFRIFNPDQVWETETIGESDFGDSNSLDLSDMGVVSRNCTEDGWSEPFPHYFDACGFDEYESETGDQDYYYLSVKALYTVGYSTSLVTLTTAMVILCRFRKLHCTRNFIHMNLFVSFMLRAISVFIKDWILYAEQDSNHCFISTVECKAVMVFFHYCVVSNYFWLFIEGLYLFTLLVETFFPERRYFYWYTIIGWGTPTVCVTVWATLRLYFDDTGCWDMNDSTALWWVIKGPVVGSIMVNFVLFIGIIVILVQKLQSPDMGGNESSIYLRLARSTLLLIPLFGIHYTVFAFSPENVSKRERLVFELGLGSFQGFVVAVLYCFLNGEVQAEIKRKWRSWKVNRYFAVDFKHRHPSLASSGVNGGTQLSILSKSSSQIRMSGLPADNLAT
Test details: Filter binding assay, membranes of cells transiently transfected with human PAC1, 125I-labeled PACAP-27 tracer (Table 2)
Design: expressed in transfected cells
Cond: read-out: Human PAC1 Receptor Binding
Where no end group is shown, it is not given here. The star is where a group is joined. Hexanoyl = CCCCCC(=O)*
Reply numerically in nM, unit not repeated.

Before answering, review these 4 worked examples.
Substance	IC50, nM
Hexanoyl-HSDAVFTDNYTRLRKQVAAKKYLQTIKNKRYGGPSSGAPPPS [Agonist P115]	190
Hexanoyl-HSDALFTDNYTRLRKQVAAKKYLQSIKNKRYGGPSSGAPPPS [Agonist P289]	324
Hexanoyl-HSDAVFTDNYTRLRKQVAAKKVLQSIKNKRYGGPSSGAPPPS [Agonist P134]	479
Hexanoyl-HSDAVFTDNYTRLKKQVAAKKYLQSIKNKRYGGPSSGAPPPS [Agonist P171]	335

Pending substance:
In: // lookup IC50 for Hexanoyl-HSDAVFTDNYTRLRKQVAAKKYLQSVKNKRYGGPSSGAPPPS [Agonist P109]
Out: 257
